test system: HeLa Kyoto; test: melting temperature (median over replicates), in situ; higher = more thermally stable; details: cell cycle stage: G1/S
Measured melting temperature values are reported for all entries that follow.
Record the value in °C, omitting the unit from your answer.

# residue_codes, meas_value
rows = [
    ("MSSPQAPEDGQGCGDRGDPPGDLRSVLVTTVLNLEPLDEDLFRGRHYWVPAKRLFGGQIVGQALVAAAKSVSEDVHVHSLHCYFVRAGDPKLPVLYQVERTRTGSSFSVRSVKAVQHGKPIFICQASFQQAQPSPMQHQFSMPTVPPPEELLDCETLIDQYLRDPNLQKRYPLALNRIAAQEVPIEIKPVNPSPLSQLQRMEPKQMFWVRARGYIGEGDMKMHCCVAAYISDYAFLGTALLPHQWQHKVHFMVSLDHSMWFHAPFRADHWMLYECESPWAGGSRGLVHGRLWRQDGVLAVTCAQEGVIRVKPQVSESKL [ACOT8]", 51.9),
    ("MESNKDEAERCISIALKAIQSNQPDRALRFLEKAQRLYPTPRVRALIESLNQKPQTAGDQPPPTDTTHATHRKAGGTDAPSANGEAGGESTKGYTAEQVAAVKRVKQCKDYYEILGVSRGASDEDLKKAYRRLALKFHPDKNHAPGATEAFKAIGTAYAVLSNPEKRKQYDQFGDDKSQAARHGHGHGDFHRGFEADISPEDLFNMFFGGGFPSSNVHVYSNGRMRYTYQQRQDRRDNQGDGGLGVFVQLMPILILILVSALSQLMVSSPPYSLSPRPSVGHIHRRVTDHLGVVYYVGDTFSEEYTGSSLKTVERNVEDDYIANLRNNCWKEKQQKEGLLYRARYFGDTDMYHRAQKMGTPSCSRLSEVQASLHG [DNAJB12]", 49.4),
]

Please find the next sequence below.
Recorded melting temperature for MPKRKVSSAEGAAKEEPKRRSARLSAKPPAKVEAKPKKAAAKDKSSDKKVQTKGKRGAKGKQAEVANQETKEDLPAENGETKTEESPASDEAGEKEAKSD [HMGN1] , please?
59

* * *

tested on: HeLa Kyoto; assay: thermal stability score vs G1/S (z-score of summed log2 fold changes over temperatures); higher = more thermally stable than in G1/S; conditions: cell cycle stage: early G1 (4.5 h after nocodazole release)
Lab note: compare thermal stability score against -1. Equal or greater, write Criterion met. Smaller, write Criterion not met.

# residue_codes, category
records = [
    ("MAVSVTPIRDTKWLTLEVCREFQRGTCSRPDTECKFAHPSKSCQVENGRVIACFDSLKGRCSRENCKYLHPPPHLKTQLEINGRNNLIQQKNMAMLAQQMQLANAMMPGAPLQPVPMFSVAPSLATNASAAAFNPYLGPVSPSLVPAEILPTAPMLVTGNPGVPVPAAAAAAAQKLMRTDRLEVCREYQRGNCNRGENDCRFAHPADSTMIDTNDNTVTVCMDYIKGRCSREKCKYFHPPAHLQAKIKAAQYQVNQAAAAQAAATAAAMTQSAVKSLKRPLEATFDLGIPQAVLPPLPKRPALEKTNGATAVFNTGIFQYQQALANMQLQQHTAFLPPVPMVHGATPATVSAATTSATSVPFAATATANQIPIISAEHLTSHKYVTQM [MBNL1]", "Criterion not met"),
    ("MEELLRRELGCSSVRATGHSGGGCISQGRSYDTDQGRVFVKVNPKAEARRMFEGEMASLTAILKTNTVKVPKPIKVLDAPGGGSVLVMEHMDMRHLSSHAAKLGAQLADLHLDNKKLGEMRLKEAGTVGRGGGQEERPFVARFGFDVVTCCGYLPQVNDWQEDWVVFYARQRIQPQMDMVEKESGDREALQLWSALQLKIPDLFRDLEIIPALLHGDLWGGNVAEDSSGPVIFDPASFYGHSEYELAIAGMFGGFSSSFYSAYHGKIPKAPGFEKRLQLYQLFHYLNHWNHFGSGYRGSSLNIMRNLVK [FN3KRP]", "Criterion not met"),
    ("MSQSKGKKRNPGLKIPKEAFEQPQTSSTPPRDLDSKACISIGNQNFEVKADDLEPIMELGRGAYGVVEKMRHVPSGQIMAVKRIRATVNSQEQKRLLMDLDISMRTVDCPFTVTFYGALFREGDVWICMELMDTSLDKFYKQVIDKGQTIPEDILGKIAVSIVKALEHLHSKLSVIHRDVKPSNVLINALGQVKMCDFGISGYLVDSVAKTIDAGCKPYMAPERINPELNQKGYSVKSDIWSLGITMIELAILRFPYDSWGTPFQQLKQVVEEPSPQLPADKFSAEFVDFTSQCLKKNSKERPTYPELMQHPFFTLHESKGTDVASFVKLILGD [MAP2K6]", "Criterion met"),
    ("MVLLESEQFLTELTRLFQKCRTSGSVYITLKKYDGRTKPIPKKGTVEGFEPADNKCLLRATDGKKKISTVVSSKEVNKFQMAYSNLLRANMDGLKKRDKKNKTKKTKAAAAAAAAAPAAAATAPTTAATTAATAAQ [SRP14]", "Criterion not met"),
]

Please examine the following record next.
Quick check: does MASASGAMAKHEQILVLDPPTDLKFKGPFTDVVTTNLKLRNPSDRKVCFKVKTTAPRRYCVRPNSGIIDPGSTVTVSVMLQPFDYDPNEKSKHKFMVQTIFAPPNTSDMEAVWKEAKPDELMDSKLRCVFEMPNENDKLNDMEPSKAVPLNASKQDGPMPKPHSVSLNDTETRKLMEECKRLQGEMMKLSEENRHLRDEGLRLRKVAHSDKPGSTSTASFRDNVTSPLPSLLVVIAAIFIGFFLGKFIL [VAPA] have thermal stability score greater than or equal to -1?
Criterion not met
